- Test system: mice of the OF1 strain
- test.name: Hypolipidemic activity: plasma cholesterol and plasma triglycerides in mice fed compound in chow
- Format: in vivo
- test.settings: Mus musculus, feed or water, 240 h, read-out: Cholesterol (% control)
Mark yes only for change in vivo at 180 mg/kg values smaller than -10%; exact matches and larger values are no.

Below, 4 compounds whose answers are already recorded.
                                   compound          assayed_system  discrete_label
0  CC(C)OP(=O)(OC(C)C)C(Sc1cc(C(C)(C)C)c(O)c(C(C)(C)C)c1)P(=O)(OC(C)C)OC(C)C [Compound 22]  mice of the OF1 strain             yes
1  CCOP(=O)(OCC)C(CCCCCCSc1cc(C(C)(C)C)c(O)c(C(C)(C)C)c1)P(=O)(OCC)OCC [Compound 20]  mice of the OF1 strain              no
2  CCOP(=O)(OCC)C(=Cc1cc(C(C)C)c(O)c(C(C)C)c1)P(=O)(OCC)OCC [Compound 31]  mice of the OF1 strain              no
3  CCOP(=O)(OCC)C(Cc1cc(C(C)(C)C)c(O)c(C(C)(C)C)c1)P(=O)(OCC)OCC [Compound 4]  mice of the OF1 strain             yes

Consider CCOP(=O)(OCC)C(=CC=Cc1cc(C(C)(C)C)c(O)c(C(C)(C)C)c1)P(=O)(OCC)OCC [Compound 43] . Does its change in vivo at 180 mg/kg lie strictly below -10%?
no

I wonder whether CCOP(=O)(OCC)C(Sc1cc(C(C)(C)C)c(O)c(C(C)(C)C)c1)P(=O)(OCC)OCC [Compound 5] has change in vivo at 180 mg/kg below -10%. Can you tell?
yes

For CCOP(=O)(OCC)C(Cc1cc2c(cc1Cl)OCO2)P(=O)(OCC)OCC [Compound 13] , is the recorded change in vivo at 180 mg/kg below the cut-off of -10%?
no

Just wondering, is change in vivo at 180 mg/kg of CC(C)OP(=O)(OC(C)C)C(Cc1cc(C(C)(C)C)c(O)c(C(C)(C)C)c1)P(=O)(OC(C)C)OC(C)C [Compound 6] below -10%?
yes
